Attribution: the supplement of paper PMC9233669

system: biotinyl-Leu-oxazolone; experiment: self-aminoacylation, catalytic enhancement (BLO) (fold over background); higher = more active; k-Seq, kA / k0A0; sequences stand for … in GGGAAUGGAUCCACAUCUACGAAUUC…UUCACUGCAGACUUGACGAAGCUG
This sample holds only a part of the variants without activity.
PROPERTY LABEL: self-aminoacylation
Answer with a bare number; do not write a unit.

Query AUAACCCUGGUCUUCGAGUGA [Fam2.1 aminoacylation ribozyme variant] yields self-aminoacylation of 5.23

Query AUUAGCCCGGUCAUCGAGUGA [Fam2.1 aminoacylation ribozyme variant] yields self-aminoacylation of 6.64

Query CUACUUCAAACAAUCGGAUUG [Fam1A.1 aminoacylation ribozyme variant] yields self-aminoacylation of 0.719

Query CCAAACUUCAAGCCAUCGGUC [Fam1B.1 aminoacylation ribozyme variant] yields self-aminoacylation of 1.03

Query AUUACCCUCGUCACCGAGUGA [Fam2.1 aminoacylation ribozyme variant] yields self-aminoacylation of 4.63

Query AGGUUUCCUAAUAGUCGCAAG [Fam3.1 aminoacylation ribozyme variant] yields self-aminoacylation of 1.61

Query AAGUUAGCUAAUAAUCGCAAG [Fam3.1 aminoacylation ribozyme variant] yields self-aminoacylation of 1.38

Query CAACUUAAAACAAUCGGUCUG [Fam1A.1 aminoacylation ribozyme variant] yields self-aminoacylation of 1.11

Query AUUGAACUAGGUCAUCGGGUG [Fam2.2 aminoacylation ribozyme variant] yields self-aminoacylation of 4.62

Query CUACAUCAAACAAUCGGUCUU [Fam1A.1 aminoacylation ribozyme variant] yields self-aminoacylation of 0.615

Query AUUACCCUGGUUAUCGAGUGA [Fam2.1 aminoacylation ribozyme variant] yields self-aminoacylation of 8.64

Query CUACUUGAAACAAUGGGUCUG [Fam1A.1 aminoacylation ribozyme variant] yields self-aminoacylation of 1.13

Query AUUCACCUAUGUCUUCGGGUG [Fam2.2 aminoacylation ribozyme variant] yields self-aminoacylation of 2.67

Query AAGUUUGCUAAAAGUCGCAGG [Fam3.1 aminoacylation ribozyme variant] yields self-aminoacylation of 1.07

Query AUUACCCUGGGCAUGGAGUGA [Fam2.1 aminoacylation ribozyme variant] yields self-aminoacylation of 8.39

Query AUUACCGUGGCCAUCGAGUGA [Fam2.1 aminoacylation ribozyme variant] yields self-aminoacylation of 5.84

Query AGGUUAGCUAAUAGUCGCAAG [Fam3.1 aminoacylation ribozyme variant] yields self-aminoacylation of 2.16

Query AUUACCCUAGUAAUCGAGUGA [Fam2.1 aminoacylation ribozyme variant] yields self-aminoacylation of 7.45

Query AUUACCCUGGCCAUCGAGUGG [Fam2.1 aminoacylation ribozyme variant] yields self-aminoacylation of 1.95

Query AUUACCGUGGUCAACGAGUGA [Fam2.1 aminoacylation ribozyme variant] yields self-aminoacylation of 7.25

Query AUUCACCUAGGUCAUACGGUG [Fam2.2 aminoacylation ribozyme variant] yields self-aminoacylation of 10.3

Query CCACACAGCAAGCAAUCGGUC [Fam1B.1 aminoacylation ribozyme variant] yields self-aminoacylation of 0.787

Query AUUCCCCGAGGUCAUCGGGUG [Fam2.2 aminoacylation ribozyme variant] yields self-aminoacylation of 29.9

Query AUGUUUGCUAAGAGUCGCAAG [Fam3.1 aminoacylation ribozyme variant] yields self-aminoacylation of 1.39

Query AUUCGACUAGGUCAUCGGGUG [Fam2.2 aminoacylation ribozyme variant] yields self-aminoacylation of 8.63

Query CCACACUUCCAGCAAUCGUUC [Fam1B.1 aminoacylation ribozyme variant] yields self-aminoacylation of 0.64

Query AUUAGCCUGGUCAUCGACUGA [Fam2.1 aminoacylation ribozyme variant] yields self-aminoacylation of 1.13

Query CCACACUUCAAGCUAUCGGAC [Fam1B.1 aminoacylation ribozyme variant] yields self-aminoacylation of 0.681

###

system: biotinyl-Trp-oxazolone; assay: self-aminoacylation, catalytic enhancement (BWO) (fold over background); higher = more active; k-Seq, kA / k0A0; sequences stand for … in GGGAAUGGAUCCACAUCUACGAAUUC…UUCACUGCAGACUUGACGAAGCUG
Fewer inactive variants are shown than the library holds.
PROPERTY LABEL: self-aminoacylation

Query AUUAUCCUGGUCAUCGAGUGG [Fam2.1 aminoacylation ribozyme variant] yields self-aminoacylation of 4.05

Query AUUCACCUAGGUCAACGGGGG [Fam2.2 aminoacylation ribozyme variant] yields self-aminoacylation of 2.31

Query AUUACCCUGGCCAUCGGGUGA [Fam2.1 aminoacylation ribozyme variant] yields self-aminoacylation of 11.8

Query CCACACUUCAAGCAACCGGCC [Fam1B.1 aminoacylation ribozyme variant] yields self-aminoacylation of 5.33

Query AAGUUUUCUAAUAGUCGGAAG [Fam3.1 aminoacylation ribozyme variant] yields self-aminoacylation of 1.21

Query AUUACCCUGGUCAUCGCGUGC [Fam2.1 aminoacylation ribozyme variant] yields self-aminoacylation of 4.47

Query AUUACCCUGGGGAUCGAGUGA [Fam2.1 aminoacylation ribozyme variant] yields self-aminoacylation of 3.94

Query AAGUUCACUAAUAGUCGCAAG [Fam3.1 aminoacylation ribozyme variant] yields self-aminoacylation of 2.23

Query CGACACUUCAAGCAAUCGGUC [Fam1B.1 aminoacylation ribozyme variant] yields self-aminoacylation of 7.38

Query CCUCACAUCAAGCAAUCGGUC [Fam1B.1 aminoacylation ribozyme variant] yields self-aminoacylation of 1.05

Query AUUACCAUGGUCAUCGAGCGA [Fam2.1 aminoacylation ribozyme variant] yields self-aminoacylation of 1.64

Query CUACGUCAAACAAACGGUCUG [Fam1A.1 aminoacylation ribozyme variant] yields self-aminoacylation of 0.904

Query AUAACCCUGGUCAUCGAGUCA [Fam2.1 aminoacylation ribozyme variant] yields self-aminoacylation of 0.624

Query UAGUAUGCUAAUAGUCGCAAG [Fam3.1 aminoacylation ribozyme variant] yields self-aminoacylation of 1.68

Query AUACACCGAGGUCAUCGGGUG [Fam2.2 aminoacylation ribozyme variant] yields self-aminoacylation of 4.15

Query UCACUUCAAACAAUCGGUCUG [Fam1A.1 aminoacylation ribozyme variant] yields self-aminoacylation of 35.1

Query AAGGUUGCUAAUAUUCGCAAG [Fam3.1 aminoacylation ribozyme variant] yields self-aminoacylation of 1.22

Query AUUACCCUGGUCAACGCGUGA [Fam2.1 aminoacylation ribozyme variant] yields self-aminoacylation of 12.3

Query CCACACUUCGAGCAAUCCGUC [Fam1B.1 aminoacylation ribozyme variant] yields self-aminoacylation of 1.4

Query CUACCUCAAACGAUCGGUCUG [Fam1A.1 aminoacylation ribozyme variant] yields self-aminoacylation of 0.954

Query CCACACUUCAAGGAAUUGGUC [Fam1B.1 aminoacylation ribozyme variant] yields self-aminoacylation of 0.823

###

tested on: biotinyl-Phe-oxazolone; assay: self-aminoacylation, catalytic enhancement (BFO) (fold over background); higher = more active; k-Seq, kA / k0A0; sequences stand for … in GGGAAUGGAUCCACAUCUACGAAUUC…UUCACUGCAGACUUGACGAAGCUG
Variants at the floor of the assay were thinned out.
Please go through the items and note down their self-aminoacylation.
Answer with a bare number; do not write a unit.

Query AUUGACCUAGGUCAGCGGGUG [Fam2.2 aminoacylation ribozyme variant] yields self-aminoacylation of 12.5

Query CUACUUCUAACAAUGGGUCUG [Fam1A.1 aminoacylation ribozyme variant] yields self-aminoacylation of 0.582

Query AAGUCUGCAAAUAGUCGCAAG [Fam3.1 aminoacylation ribozyme variant] yields self-aminoacylation of 1.15

Query AUUCAACUAGGUGAUCGGGUG [Fam2.2 aminoacylation ribozyme variant] yields self-aminoacylation of 21.9

Query AUUCACCUAGGUCAACGGGGG [Fam2.2 aminoacylation ribozyme variant] yields self-aminoacylation of 12.7

Query CCACACUUCCAGCAAUCGGAC [Fam1B.1 aminoacylation ribozyme variant] yields self-aminoacylation of 0.784

Query CUUCUUCAAACAGUCGGUCUG [Fam1A.1 aminoacylation ribozyme variant] yields self-aminoacylation of 0.711

Query CCACACUUCAAGGAAUAGGUC [Fam1B.1 aminoacylation ribozyme variant] yields self-aminoacylation of 0.627

Query AUUCACCCAGAUCAUCGGGUG [Fam2.2 aminoacylation ribozyme variant] yields self-aminoacylation of 7.26

Query AUGUACCUAGGUCAUCGGGUG [Fam2.2 aminoacylation ribozyme variant] yields self-aminoacylation of 34

Query AUUUACCUAGGUUAUCGGGUG [Fam2.2 aminoacylation ribozyme variant] yields self-aminoacylation of 23.2

Query UUUCACCUAGAUCAUCGGGUG [Fam2.2 aminoacylation ribozyme variant] yields self-aminoacylation of 16.5

Query AUUACCCUGGUUAUCGGGUGA [Fam2.1 aminoacylation ribozyme variant] yields self-aminoacylation of 94.3

Query AUUACCCUGGUCAACGACUGA [Fam2.1 aminoacylation ribozyme variant] yields self-aminoacylation of 0.635

Query AUUAACCUAGGUCAUCGAGUG [Fam2.2 aminoacylation ribozyme variant] yields self-aminoacylation of 17.9

Query CCACACUUCACGCAAUCUGUC [Fam1B.1 aminoacylation ribozyme variant] yields self-aminoacylation of 0.436

Query AUUCACCUAGGUAAUCUGGUG [Fam2.2 aminoacylation ribozyme variant] yields self-aminoacylation of 16.9

Query AAGUUUCCUAAUAGUCGCAAA [Fam3.1 aminoacylation ribozyme variant] yields self-aminoacylation of 3.59

Query CUACGUAAAACAAUCGGUCUG [Fam1A.1 aminoacylation ribozyme variant] yields self-aminoacylation of 1.38

Query CCACACUUCAAGAAAUCGGUG [Fam1B.1 aminoacylation ribozyme variant] yields self-aminoacylation of 55.3

Query CCACUUCAAUCAAUCGGUCUG [Fam1A.1 aminoacylation ribozyme variant] yields self-aminoacylation of 41.8

Query AAGUUUGAUAAGAGUCGCAAG [Fam3.1 aminoacylation ribozyme variant] yields self-aminoacylation of 1.67

Query AUGUUUGCUAAUUGUCGCAAG [Fam3.1 aminoacylation ribozyme variant] yields self-aminoacylation of 1.81

Query AUAUUUCAAACAAUCGGUCUG [Fam1A.1 aminoacylation ribozyme variant] yields self-aminoacylation of 5.45

Query CCACACUUCAAGCUACCGGUC [Fam1B.1 aminoacylation ribozyme variant] yields self-aminoacylation of 0.832
